# credit: ChEMBL document CHEMBL1126276

tested on: Plasmodium berghei; experiment: Antimalarial activity in Plasmodium berghei infected mice (Mus musculus) after subcutaneous 640 mg/kg dose; type: functional
Measured No. of cured mice accompanies every entry in the list below.
Enter the number alone.

# count of solved cases: 10
compound: CC1/C(=N\CCCN(C)C)c2c(nc3ccc(Cl)cc3c2O)CC1c1ccc(Cl)c(Cl)c1 (stereo in doubt)
No. of cured mice: 4
//
compound: OCCN(CCO)CCC/N=C1\CC(c2ccc(Cl)cc2Cl)Cc2nc3ccc(Cl)cc3c(O)c21 (stereo not given)
No. of cured mice: 5
//
compound: CN(C)CCC/N=C1\CC(c2ccc(C(F)(F)F)cc2)Cc2nc3ccc(Br)cc3c(O)c21 (stereo not given)
No. of cured mice: 2
//
compound: COc1ccccc1C1CC(=O)c2c(nc3ccc(Cl)cc3c2O)C1 (stereo not given)
No. of cured mice: 5
//
compound: CN(C)c1ccc(C2CC(=O)c3c(n(O)c4ccc(Cl)cc4c3=O)C2)cc1 (stereo not given)
No. of cured mice: 5
//
compound: NCC/N=C1\CC(c2ccc(Cl)cc2Cl)Cc2nc3ccc(Cl)cc3c(O)c21 (stereo not given)
No. of cured mice: 5
//
compound: O=c1c2c(n(O)c3ccc(Cl)cc13)CC(c1ccc(Cl)c(Cl)c1)C/C2=N\CCCNCCO (stereo not given)
No. of cured mice: 5
//
compound: O=C1CC(c2ccccc2Cl)Cc2nc3ccc(Cl)cc3c(O)c21 (stereo not given)
No. of cured mice: 1
//
compound: O=C1CC(c2ccc(C(F)(F)F)cc2)Cc2nc3ccc(Br)cc3c(O)c21 (stereo not given)
No. of cured mice: 4
//
compound: CN(C)CCC/N=C1\CC(c2ccc(C(F)(F)F)cc2)Cc2nc3ccc(C(F)(F)F)cc3c(O)c21 (stereo not given)
No. of cured mice: 5

Provide the documented No. of cured mice with Plasmodium berghei as the system for COc1ccc(C2C/C(=N\CCCN(C)C)c3c(nc4ccc(Cl)cc4c3O)C2)cc1 (stereo not given) 1

Likewise for O=c1c2c(n(O)c3ccc(Cl)cc13)CC(c1ccc(C(F)(F)F)cc1)C/C2=N\CCCN1CCCCC1 (stereo not given) ? 1

Would you mind doing CCN(CC)CCCC(C)/N=C1\CC(c2ccc(Cl)c(Cl)c2)Cc2c1c(=O)c1cc(Cl)ccc1n2O (stereo not given) as well? 5

Do the same for CC(C)CN(CC/N=C1\CC(c2ccc(Cl)c(Cl)c2)Cc2c1c(=O)c1cc(Cl)ccc1n2O)CC(C)C (stereo not given) please 5

Follow-up entry: CN(C)CCC/N=C1\CC(c2ccc(Cl)c(Cl)c2)Cc2nc3ccc(Cl)cc3c(O)c21 (stereo not given) 5

Next entry: O=C1CC(c2ccc(C(F)(F)F)cc2)Cc2nc3ccc([N+](=O)[O-])cc3c(O)c21 (stereo not given) 1
